Just for reference, patent US9328099B2 is where these values come from.

# MEASURED_ON: JAK1 (Homo sapiens (Human))
# ASSAY_EXPLANATION: Jak Biochemical HTRF Assay, JAK1
# CONDITION_PARAMETERS: HTRF biochemical assay, GST-tagged catalytic domain; top concentration tested […]; read-out: JAK1 IC50
pIC50: −log10 of the molar value.
READOUT_TYPE: pIC50

N#CCC1(n2cc(C(N)=O)c(Nc3ccnc(F)c3)n2)CCN(Cc2cccc3cc[nH]c23)CC1 : 9.15
CC(C)(CO)OC(=O)N1CCC(CC#N)(n2cc(C(N)=O)c(Nc3ccc(F)cc3)n2)CC1 : 8.70
Cc1ccc(N2CCC(CC#N)(n3cc(C(N)=O)c(Nc4ccc(F)cc4)n3)CC2)cc1 : 8.40
CC(C)(C)OC(=O)N1CCC(CC#N)(n2cc(C(N)=O)c(Nc3ccnc(N)c3)n2)CC1 : 9.70
CC(C)(C)OC(=O)N1CCC(CC#N)(n2cc(C(N)=O)c(Nc3cccc(-c4ccc(Cl)cc4)c3)n2)CC1 : 6.83

I: CC(C)(C)C(=O)N1CCC(CC#N)(n2cc(C(N)=O)c(Nc3ccccc3)n2)CC1
II: N#CCC1(n2cc(C(N)=O)c(Nc3ccnc(F)c3)n2)CCC(NCc2ccc(F)cc2)CC1 (stereo not drawn) [Example 41-12]
stdin: Lower pIC50: I or II ? Lab note: record the label of whichever item you select.
stdout: I

1: CC(CF)(CF)C(=O)N1CCC(CC#N)(n2cc(C(N)=O)c(Nc3ccnc(F)c3)n2)CC1
2: Cc1ccccc1-c1cccc(Nc2nn(C3(CC#N)CCN(C(=O)OC(C)(C)C)CC3)cc2C(N)=O)c1
3: N#CCC1(n2cc(C(N)=O)c(Nc3ccc(F)cc3)n2)CCC(N2CCC(F)(F)CC2)CC1 (stereo not drawn)
stdin: Highest pIC50 first, then in falling order down to the smallest. Would you mind listing the labels in the order asked for?
stdout: 3, 1, 2

I: CC(C)(C)OC(=O)N1CC(CC#N)(n2cc(C(N)=O)c(Nc3ccccc3)n2)C1
II: N#CCC1(n2cc(C(N)=O)c(Nc3ccccc3)n2)CCN(C(=O)OC2CCCC2)CC1
III: CC1=NOC(CN2CCC(CC#N)(n3cc(C(N)=O)c(Nc4ccnc(F)c4)n3)CC2)C1 (stereo not drawn)
stdin: # rank by pIC50, ascending (min first) Reply with the item labels sorted in the order that was asked for.
stdout: III, I, II
(III: 7.74, I: 8.10, II: 9.00)

I: N#CCC1(n2cc(C(N)=O)c(Nc3ccnc(F)c3)n2)CCC(N2CCc3ccccc32)CC1 (stereo not drawn) [Example 40-54]
II: N#CCC1(n2cc(C(N)=O)c(Nc3ccccc3)n2)CN(C(=O)OCCN2CCCC2=O)C1
stdin: Would you mind telling me which has the lower recorded pIC50 between I and II ? API: response body contains the label of the selected item.
stdout: II
(II: 6.73, I: 9.05)

* * *

# MEASURED_ON: UniProtKB O60674
# ASSAY_EXPLANATION: Jak Biochemical HTRF Assay, JAK2
# CONDITION_PARAMETERS: HTRF biochemical assay, GST-tagged catalytic domain; top concentration tested […]
READOUT_TYPE: IC50 (µM)

Study these solved cases before continuing.
N#CCC1(n2cc(C(N)=O)c(Nc3ccccc3)n2)CCN(Cc2c(F)cccc2F)CC1 : 0.013
CN1CCN(c2ccc(C(=O)N3CCC(CC#N)(n4cc(C(N)=O)c(Nc5ccccc5)n4)CC3)cc2)CC1 : 0.83
N#CCC1(n2cc(C(N)=O)c(Nc3ccccc3)n2)CN(C(=O)OCc2ccccc2)C1 : 0.262
N#CCC1(n2cc(C(N)=O)c(Nc3ccc(F)cc3)n2)CCN(c2cccc(C3CC3)c2)CC1 : 0.78

I: Cn1cc(-c2ccc(Nc3nn(C4(CC#N)CCN(C(=O)OCC(F)(F)F)CC4)cc3C(N)=O)cn2)cn1
II: CS(=O)(=O)c1ccc(Nc2nn(C3(CC#N)CCN(C(=O)CC#N)CC3)cc2C(N)=O)cc1
III: N#CCC1(n2cc(C(N)=O)c(Nc3ccc(F)cc3)n2)CCN(c2ccncn2)CC1
stdin: Ordering criterion: IC50; begin with the maximum. Form field (ranking): labels in requested order.
stdout: II, III, I
(II: 0.01 µM, III: 0.005 µM, I: 0.0005 µM)

I: N#CCC1(n2cc(C(N)=O)c(Nc3ccnc(F)c3)n2)CCN(Cc2cccnc2F)CC1
II: N#CCC1(n2cc(C(N)=O)c(Nc3ccnc(F)c3)n2)CCN(Cc2cccc(=O)[nH]2)CC1
stdin: Kindly identify the item with the lower IC50 figure among these two: I and II Please reply using the label of the selected record.
stdout: I

I: CC(C)(C)OC(=O)N1CCC(CC#N)(n2cc(C(N)=O)c(Nc3ccc(F)c(F)c3)n2)CC1
II: N#CCC1(n2cc(C(N)=O)c(Nc3ccc(F)cc3)n2)CCN(Cc2ccnc3[nH]ccc23)CC1
stdin: // pick larger IC50 from pair: I vs II Label of pick, please.
stdout: II

a: CCOc1ccc(NC(=O)N2CC(CC#N)(n3cc(C(N)=O)c(Nc4ccccc4)n3)C2)cc1
b: N#CCC1(n2cc(C(N)=O)c(Nc3ccc(F)cc3)n2)CCN(Cc2cccnn2)CC1
stdin: Of a and b , which shows the smaller IC50 value? Please indicate the selected item by its label.
stdout: a

* * *

# MEASURED_ON: JAK2 (Homo sapiens (Human), UniProt O60674)
# Sequence (O60674 849-1124): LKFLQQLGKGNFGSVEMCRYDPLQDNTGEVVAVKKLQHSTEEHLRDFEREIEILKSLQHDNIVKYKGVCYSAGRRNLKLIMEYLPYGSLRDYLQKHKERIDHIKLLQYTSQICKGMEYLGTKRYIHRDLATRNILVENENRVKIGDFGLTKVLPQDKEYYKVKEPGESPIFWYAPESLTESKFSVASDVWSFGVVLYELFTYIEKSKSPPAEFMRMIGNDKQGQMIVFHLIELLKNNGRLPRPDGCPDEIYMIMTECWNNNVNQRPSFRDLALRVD
# ASSAY_EXPLANATION: Jak Biochemical HTRF Assay, JAK2
# CONDITION_PARAMETERS: HTRF biochemical assay, GST-tagged catalytic domain; top concentration tested […]
READOUT_TYPE: IC50 (nM)

N#CCC1(n2cc(C(N)=O)c(Nc3ccnc(F)c3)n2)CCN(C(=O)CC2CC2)CC1 [Example 34-45] : 46
N#CCC1(n2cc(C(N)=O)c(Nc3ccnc(F)c3)n2)CCC(Nc2cc(F)ccc2F)CC1 (stereo not drawn) [Example 40-10] : 355
CC(C)(C)OC(=O)N1CCC(CC#N)(n2cc(C(N)=O)c(Nc3ccc(S(C)(=O)=O)cc3)n2)CC1 [Example 4-1] : 1
N#CCC1(n2cc(C(N)=O)c(Nc3ccc(F)cc3)n2)CCC(Nc2cccc(F)c2)CC1 (stereo not drawn) [Example 40-16] : 18
CN(CCS(C)(=O)=O)C1CCC(CC#N)(n2cc(C(N)=O)c(Nc3ccc(F)cc3)n2)CC1 (stereo not drawn) [Example 40-72] : 37

A: N#CCC1(n2cc(C(N)=O)c(Nc3ccccc3)n2)CCN(C(=O)c2ccncc2)CC1 [Example 34-10]
B: N#CCC1(n2cc(C(N)=O)c(Nc3ccc(F)cc3)n2)CCN(C(=O)OC2COC2)CC1 [Example 30-18]
C: N#CCC1(n2cc(C(N)=O)c(Nc3ccccc3)n2)CN(C(=O)OCCN2CCOCC2)C1 [Example 30-55]
D: Cc1ccccc1NC(=O)N1CC(CC#N)(n2cc(C(N)=O)c(Nc3ccccc3)n2)C1 [Example 38-27]
E: N#CCC1(n2cc(C(N)=O)c(Nc3ccnc(F)c3)n2)CCN(Cc2cn[nH]c2)CC1 [Example 22-5]
stdin: Arrange the 5 compounds by rising IC50, starting with the smallest. Answer format: list of labels, ordered as asked.
stdout: B, E, D, A, C
(B: 44 nM, E: 70 nM, D: 162 nM, A: 318 nM, C: 491 nM)

* * *

# MEASURED_ON: UniProt:O60674
# ASSAY_EXPLANATION: Jak Biochemical HTRF Assay, JAK2
# CONDITION_PARAMETERS: HTRF biochemical assay, GST-tagged catalytic domain; top concentration tested […]
READOUT_TYPE: IC50 (nM)

Worked cases, IC50 given:
N#CCC1(n2cc(C(N)=O)c(Nc3ccccc3)n2)CCN(C(=O)OC2CCCCC2)CC1 : 318
COCC(C)(C)OC(=O)N1CCC(CC#N)(n2cc(C(N)=O)c(Nc3ccc(F)cc3)n2)CC1 : 74
CCC(=O)N1CCC(CC#N)(n2cc(C(N)=O)c(Nc3ccccc3)n2)CC1 : 26
CC(C)OC(=O)c1ccc(Nc2nn(C3(CC#N)CCN(C(=O)OC(C)(C)C)CC3)cc2C(N)=O)cc1 : 20
CC(C)(C)CC(C)(C)NC(=O)N1CC(CC#N)(n2cc(C(N)=O)c(Nc3ccccc3)n2)C1 : 1480

A: Cc1ncccc1N1CCC(CC#N)(n2cc(C(N)=O)c(Nc3ccc(F)cc3)n2)CC1
B: Cc1ccc(N2CCC(CC#N)(n3cc(C(N)=O)c(Nc4ccc(F)cc4)n3)CC2)cc1
stdin: Lab note: check whether A or B has the lower measured IC50. Provide the label of your selected option as the answer.
stdout: B
(B: 117 nM, A: 209 nM)

* * *

# MEASURED_ON: JAK1 (Homo sapiens (Human), UniProt P23458)
# Sequence (P23458 875-1153): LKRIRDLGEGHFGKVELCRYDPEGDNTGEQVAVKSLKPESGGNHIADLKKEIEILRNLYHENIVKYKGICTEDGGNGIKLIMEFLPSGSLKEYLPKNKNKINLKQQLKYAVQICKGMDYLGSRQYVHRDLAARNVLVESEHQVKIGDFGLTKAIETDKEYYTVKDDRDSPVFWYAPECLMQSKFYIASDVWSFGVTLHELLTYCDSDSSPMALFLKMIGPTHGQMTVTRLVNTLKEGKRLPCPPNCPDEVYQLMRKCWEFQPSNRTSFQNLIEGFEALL
# ASSAY_EXPLANATION: Jak Biochemical HTRF Assay, JAK1
# CONDITION_PARAMETERS: HTRF biochemical assay, GST-tagged catalytic domain; top concentration tested […]; read-out: JAK1 IC50
pIC50: −log10 of the molar value.
READOUT_TYPE: pIC50

Guide cases for pIC50, answers given:
Cc1cc(N2CCC(CC#N)(n3cc(C(N)=O)c(Nc4ccc(F)cc4)n3)CC2)ccc1F : 7.92
N#CCC1(n2cc(C(N)=O)c(Nc3ccnc(F)c3)n2)CCC(NCC(F)F)CC1 (stereo not shown) : 7.89
N#CCC1(n2cc(C(N)=O)c(Nc3ccc(F)cc3)n2)CCN(c2ccc(C#N)cc2)CC1 : 9.70
N#CCC1(n2cc(C(N)=O)c(Nc3ccccc3)n2)CCN(Cc2ccc(C#N)cc2)CC1 : 7.54
CC(C)(C)OC(=O)NC1CCC(CC#N)(n2cc(C(N)=O)c(Nc3ccccc3)n2)CC1 (single isomer, unassigned) : 7.92

A: N#CCC1(n2cc(C(N)=O)c(Nc3ccnc(F)c3)n2)CCN(C(=O)Cn2ccnc2)CC1
B: N#CCC1(n2cc(C(N)=O)c(Nc3ccc(S(=O)(=O)C(F)(F)F)cc3)n2)CCN(C(=O)Nc2ccc(C#N)cc2)CC1
stdin: Hi! Which is lower in terms of pIC50, the first one A or the second one B ? Use the label to indicate which entry you chose.
stdout: A
